EC50 values for the compounds below.
Target: Nicotinamide phosphoribosyltransferase (Homo sapiens, UniProt P43490)
Sequence (P43490 whole entry): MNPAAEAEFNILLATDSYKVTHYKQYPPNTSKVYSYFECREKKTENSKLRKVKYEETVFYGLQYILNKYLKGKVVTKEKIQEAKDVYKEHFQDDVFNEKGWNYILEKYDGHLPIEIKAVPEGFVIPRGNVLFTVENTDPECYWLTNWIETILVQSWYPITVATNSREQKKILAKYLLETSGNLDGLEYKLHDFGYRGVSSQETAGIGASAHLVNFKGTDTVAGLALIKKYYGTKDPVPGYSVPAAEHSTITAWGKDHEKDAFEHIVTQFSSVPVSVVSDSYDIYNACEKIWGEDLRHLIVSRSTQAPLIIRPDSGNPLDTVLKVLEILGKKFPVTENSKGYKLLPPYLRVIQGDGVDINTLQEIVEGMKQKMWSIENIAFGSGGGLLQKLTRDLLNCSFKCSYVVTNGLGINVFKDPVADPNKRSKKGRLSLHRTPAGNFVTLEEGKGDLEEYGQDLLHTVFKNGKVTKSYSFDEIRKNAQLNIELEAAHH
Assay: Enzyme Assay and NMN Detection: NAMPT reaction was performed in 50 mM HEPES, pH 7.5, containing 5 mM MgCl2, 0.1% Prionex, 0.005% Tween 20, and 1 mM TCEP at room temperature in Greiner 384-well black polypropylene plates. […] Following 2 h incubation the reaction was stopped by addition 2.5 ul 20% acetophenone in dimethyl sulfoxide (DMSO) and 2.5 ul 2 MKOH. Plates were centrifuges and added with 10.5 ul 88% formic acid. […] The increased concentration of NMN was determined from a calibration curve obtained at the time of experiment.

1. CCOC(=O)c1ccc(NC(=O)NCc2ccncc2)cn1    > 20 µM
2. CCOC(=O)c1ccc(NC(=O)NCc2ccncc2)nc1    > 20 µM

Qu. Write down EC50 measured for item `NC(=O)c1ccc(NC(=O)NCc2ccncc2)nc1`
Ans. > 20 µM
